experiment summary: Change in full blood count parameters with time (bone marrow toxicity)
Type: in vivo, human
stated conditions: patient B466, part B, 160mg (intermittent), C30D15, relative day 673
parameter: Hb (g/L)
API: value field is a number in g/L; no unit string.

Return value of Hb for input `C[C@@H]1COCCN1c1cc(C2([S@](C)(=N)=O)CC2)nc(-c2cc[nH]c3nccc2-3)n1` , no commentary.
103

====

experiment summary: Plasma pharmacokinetics of ceralasertib (HPLC-MS/MS, NCA)
Format: in vivo, human
stated conditions: human, plasma, oral, 40 mg, 40 mg day 1; 2 h; read-out: Plasma concentration, individual patients
parameter: concentration at 2 h (ng/mL)
Dear colleague, please return just the value in ng/mL, with no unit written.

Entry C[C@@H]1COCCN1c1cc(C2([S@](C)(=N)=O)CC2)nc(-c2cc[nH]c3nccc2-3)n1 [ceralasertib] needs its concentration at 2 h filled in; supply it.
2290

====

experiment summary: Plasma pharmacokinetics of ceralasertib (HPLC-MS/MS, NCA)
Format: in vivo, human
stated conditions: 80 mg day 0; 0.5 h
parameter: Plasma concentration, individual patients (ng/mL)
Hi! Could you send only the number? It should be in ng/mL, unit omitted.

Please look at this compound and report its Plasma concentration, individual patients: `C[C@@H]1COCCN1c1cc(C2([S@](C)(=N)=O)CC2)nc(-c2cc[nH]c3nccc2-3)n1`
0

====

experiment summary: Plasma pharmacokinetics of ceralasertib (HPLC-MS/MS, NCA)
Format: in vivo, human
stated conditions: human, plasma, oral, 40 mg, 40 mg day 0; 8 h; read-out: Plasma concentration, individual patients
parameter: concentration at 8 h (ng/mL)
Give the quantity in ng/mL, number only.

Query concentration at 8 h for `C[C@@H]1COCCN1c1cc(C2([S@](C)(=N)=O)CC2)nc(-c2cc[nH]c3nccc2-3)n1`
1010

====

experiment summary: Plasma pharmacokinetics of ceralasertib (HPLC-MS/MS, NCA)
Type: in vivo, human
stated conditions: human, plasma, oral; all doses, single and multiple dose; read-out: Median time to peak drug concentration (tmax)
parameter: Tmax

In one line, give reported Tmax of the entry `C[C@@H]1COCCN1c1cc(C2([S@](C)(=N)=O)CC2)nc(-c2cc[nH]c3nccc2-3)n1` .
0.5 to 4 h

====

experiment summary: Plasma pharmacokinetics of ceralasertib (HPLC-MS/MS, NCA)
Assay type: in vivo, human
stated conditions: human, plasma, oral, 240 mg, 240 mg day 0; 0 h; read-out: Plasma concentration, individual patients
Experimental: Intensive PK sampling in part A occurred after a single dose from predose up to 24 to 72 hours and again at day 15 and day 29 of continuous dosing. Participants fasted for 1 hour before and 2 hours after dosing for PK assessment. In part B, sampling coincided with day 15 PD assessments. […] Evaluated PK […] maximum observed plasma concentration (Cmax), time to Cmax (tmax), and apparent terminal half-life (t1/2) calculated as ln/lambda-z where lambda-z (lz) is the apparent terminal phase rate- […]
parameter: concentration at 0 h (ng/mL)
All answers are understood in ng/mL, so give the number only.

Please list concentration at 0 h recorded for the compound `C[C@@H]1COCCN1c1cc(C2([S@](C)(=N)=O)CC2)nc(-c2cc[nH]c3nccc2-3)n1`
0

====

experiment summary: Plasma pharmacokinetics of ceralasertib (HPLC-MS/MS, NCA)
Format: in vivo, human
stated conditions: human, plasma, oral, 40 mg, 40 mg day 0; 24 h; read-out: Plasma concentration, individual patients
parameter: concentration at 24 h (ng/mL)
Respond numerically; units are ng/mL and should not be typed.

Check the records and state concentration at 24 h for `C[C@@H]1COCCN1c1cc(C2([S@](C)(=N)=O)CC2)nc(-c2cc[nH]c3nccc2-3)n1`
203

====

experiment summary: Plasma pharmacokinetics of ceralasertib (HPLC-MS/MS, NCA)
Type: in vivo, human
stated conditions: human, plasma, oral, 40 mg, 40 mg day 1; 24 h; read-out: Plasma concentration, individual patients
parameter: concentration at 24 h

Provide concentration at 24 h value for the following compound: C[C@@H]1COCCN1c1cc(C2([S@](C)(=N)=O)CC2)nc(-c2cc[nH]c3nccc2-3)n1 [ceralasertib]
1150 ng/mL

====

experiment summary: Plasma pharmacokinetics of ceralasertib (HPLC-MS/MS, NCA)
Assay type: in vivo, human
stated conditions: human, plasma, oral, 40 mg, 40 mg day 0; 2 h; read-out: Plasma concentration, individual patients
parameter: concentration at 2 h (ng/mL)
Numeric answer only, unit ng/mL assumed.

Answer with the recorded concentration at 2 h of `C[C@@H]1COCCN1c1cc(C2([S@](C)(=N)=O)CC2)nc(-c2cc[nH]c3nccc2-3)n1` only.
2220

Values compiled from paper PMC10786692.
